# Tmax values compiled below
- method.notes: clinical
- condition.notes: human, in vivo, po, 400 mg, tmax, range

{"compound": "O=C(O)Cc1ccc(O)cc1 [4-HPAA, 4-hydroxyphenylacetic acid]", "Tmax": "0.483 to 2.5 h"}
{"compound": "NCCc1ccc(O)cc1 [Tyramine, tyramine]", "Tmax": "0.217 to 2 h"}

* * *

# Tmax values compiled below
- method.notes: clinical
- condition.notes: human, in vivo, po, 400 mg, t max
- Procedure: In this open-label pharmacokinetic/pharmacodynamic study, pharmacokinetics and effects of 400 mg oral tyramine were analysed in relation to MAO-A, CYP2D6, and OCT1 genotypes in 88 healthy volunteers. […] Plasma and urine concentrations of tyramine and 4-HPAA were analysed by HPLC with tandem mass spectrometry using tyramine-d4 (Santa Cruz Biotechnology, Inc., Dallas, TX, USA) as internal standard. […]

{"molecule": "O=C(O)Cc1ccc(O)cc1 [4-HPAA, 4-hydroxyphenylacetic acid]", "units.label": "h", "Tmax": 1.47}
{"molecule": "NCCc1ccc(O)cc1", "units.label": "h", "Tmax": 0.767}
